Each recorded value in this set is attributed to patent US20230416363A1.

Let's look at some binders and their measured OD at 10 nM.
# measured target: T1, hPD-1-Fc (human, UniProt Q15116 25-167)
# T1 construct: domain: IgV domain; also called human PD-1-Fc; not shown: human IgG1 Fc
# T1 sequence (Q15116 25-167 limits assumed): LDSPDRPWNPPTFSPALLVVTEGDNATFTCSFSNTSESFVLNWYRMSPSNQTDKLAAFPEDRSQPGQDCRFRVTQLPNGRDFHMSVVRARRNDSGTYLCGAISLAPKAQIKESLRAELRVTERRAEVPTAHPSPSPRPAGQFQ
# protocol summary: ELISA, hPD-1-Fc coated
The reply should contain only the number, in OD.

Solved entries (count: 4):
- binder: "39G8 (antibody, V domains shown) VH: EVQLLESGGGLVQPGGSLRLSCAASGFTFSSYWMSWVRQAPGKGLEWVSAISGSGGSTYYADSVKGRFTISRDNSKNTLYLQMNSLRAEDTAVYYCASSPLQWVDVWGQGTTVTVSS VL: DIQMTQSPSSLSASVGDRVTITCRASQGISPWLAWYQQKPGKAPKLLIYDASKLETGVPSRFSGSGSGTDFTLTISSLQPEDFATYYCQQAYSFPFTFGGGTKVEIK"
  experimental endpoint: "OD at 10 nM"
  numeric readout: 1.06
- binder: "38A10 (antibody, V domains shown) VH: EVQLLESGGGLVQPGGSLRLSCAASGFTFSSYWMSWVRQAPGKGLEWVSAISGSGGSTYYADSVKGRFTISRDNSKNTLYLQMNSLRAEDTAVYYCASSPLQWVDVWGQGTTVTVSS VL: DIQMTQSPSSLSASVGDRVTITCRASQSISTWLAWYQQKPGKAPKLLIYDASRLQNGVPSRFSGSGSGTDFTLTISSLQPEDFATYYCQQGDSFPFTFGPGTKVDIK"
  experimental endpoint: "OD at 10 nM"
  numeric readout: 1.06
- binder: "38A6 (antibody, V domains shown, also called 780_46) VH: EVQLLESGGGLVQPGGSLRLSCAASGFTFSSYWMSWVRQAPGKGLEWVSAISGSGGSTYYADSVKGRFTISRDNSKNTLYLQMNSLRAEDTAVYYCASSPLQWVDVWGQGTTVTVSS VL: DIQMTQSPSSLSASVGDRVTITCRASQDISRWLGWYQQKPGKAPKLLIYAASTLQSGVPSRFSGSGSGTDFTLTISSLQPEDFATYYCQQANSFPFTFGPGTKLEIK"
  experimental endpoint: "OD at 10 nM"
  numeric readout: 0.993
- binder: "39B3 (antibody, V domains shown) VH: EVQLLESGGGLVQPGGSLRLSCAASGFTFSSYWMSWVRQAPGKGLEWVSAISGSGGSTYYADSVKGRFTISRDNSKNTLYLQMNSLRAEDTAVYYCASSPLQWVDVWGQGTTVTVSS VL: DIQMTQSPSSLSASVGDRVTITCRASQSIGPWLAWYQQKPGKAPKLLIYDASNLETGVPSRFSGSGSGTDFTLTISSLQPEDFATYYCQQANSFPFTFGPGTKVDIK"
  experimental endpoint: "OD at 10 nM"
  numeric readout: 1.08

# next binder below
Which OD at 10 nM value belongs to 38C11 (antibody, V domains shown) VH: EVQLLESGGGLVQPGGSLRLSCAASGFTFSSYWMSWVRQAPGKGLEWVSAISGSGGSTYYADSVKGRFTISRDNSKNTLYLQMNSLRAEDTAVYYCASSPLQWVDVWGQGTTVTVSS VL: DIQMTQSPSSLSASVGDRVTITCRASQSISRWLAWYQQKPGKAPKLLISDASTVQSGVPSRFSGSGSGTDFTLTISSLQPEDFATYYCQQANSFPFTFGPGTKVDIK ?
1.02
